- System: neural stem cells
- Experimental Details: BrdU incorporation assay (mitotic index)
- Assay type: cell-based, mouse
- Test Conditions: 4 hrs incubation

Compound: O=c1ccn([C@@H]2O[C@H](COP(=O)(O)OP(=O)(O)OP(=O)(O)O)[C@@H](O)[C@H]2O)c(=O)[nH]1 [UTP, uridine triphosphate]
proliferation (BrdU incorporation): comparable effects
--
Compound: Nc1nc(Cl)nc2c1ncn2[C@@H]1O[C@H](COP(=O)(O)OP(=O)(O)OP(=O)(O)O)[C@@H](O)[C@H]1O [2-Cl-ATP, 2-chloro-adenosine triphosphate]
proliferation (BrdU incorporation): comparable effects
--
Compound: Nc1ncnc2c1ncn2[C@@H]1O[C@H](COP(=O)(O)OP(=O)(O)O)[C@@H](O)[C@H]1O [ADP, adenosine diphosphate]
proliferation (BrdU incorporation): comparable effects
--
Compound: Nc1ncnc2c1ncn2[C@@H]1O[C@H](COP(=O)(O)OP(=O)(O)OP(O)(O)=S)[C@@H](O)[C@H]1O [γSATP, γ-thio-adenosine triphosphate]
proliferation (BrdU incorporation): comparable effects
